Tested on: hedgehog signaling pathway
Test: Gli-Luc Reporter Assay for Hh Pathway Inhibition (TMHh-12 cells, pTA-8×Gli-Luc reporter)
Format: cell-based, Mouse
Details: Mus musculus, TMHh12, enzymatic and cellular assays for the inhibition of hedgehog signaling pathways; read-out: IC50 Ranges
pIC50: −log10 of the molar value.
Assay metric: pIC50

Request: Data request, read-out pIC50, for CS(=O)(=O)N1CCc2c(cccc2Nc2cccc(-c3ccc(C#N)cc3)c2)C1
Response: 7.00 to 8.00

Request: Now this one: OCC(CO)N1CCc2c(cccc2Nc2ccc(Cl)c(-c3ncc(-c4ccccc4)[nH]3)c2)C1
Response: 8.00 to 9.00

Request: Cc1ccc(Nc2cccc3c2CCN(S(C)(=O)=O)C3)cc1-c1cnc(N(C)C)cn1
Response: 8.00 to 9.00

Request: For Cc1ccnc(-c2cc(Nc3cccc4c3CCN(S(C)(=O)=O)C4)ccc2C)c1 then?
Response: 9.00 to 12.00

Request: And Cc1ccc(Nc2nccc3c2CCN(S(C)(=O)=O)C3)cc1-c1ccc(F)cn1 ?
Response: 6.00 to 7.00

Request: Here is the next compound: OCC(O)CN1CCC(N2CCc3c(cccc3Nc3ccc(Cl)c(-c4ncc(-c5ccccc5)[nH]4)c3)C2)CC1 (centres unmarked)
Response: 9.00 to 12.00

Request: What about this compound? O=C1CCC(N2CCc3c(cccc3Nc3ccc(Cl)c(-c4ncc(-c5ccccc5)[nH]4)c3)C2)CC1
Response: 9.00 to 12.00

Request: Please do the same for Cc1ccc(Nc2cccc3c2CCN(CC2(C)CC2)C3)cc1-c1nc2ccccc2[nH]1 as well.
Response: 8.00 to 9.00
